The reported numbers originate from PubChem BioAssay.

# System: Sam68 (KHDRBS1)
# testName: Sam68 small-molecule binders, primary screen, biochemical, small-molecule microarray, 635 nm fluorescence (AID 1125);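 note: score merges 667 nm channel intensity with signal to noise over triplicate slides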
# experimentalConditions: small-molecule microarray binding, higher = more signal
Cut-off 0.5 on composite z-score, inclusive. At or above means 1.0; below means 0.0.

Below, 3 molecules whose answers are already recorded.
molecule | assayTarget | classification
C=CCC(OC(C)=O)[C@@H]1[C@@H](N(Cc2cccc3ccccc23)C(=O)c2cccc3ccccc23)c2cc(OCCCO)ccc2N1C(=O)c1ccc2ccccc2n1 (some centres not stated) | Sam68 (KHDRBS1) | 0.0
C=C(CCCC)C(=O)CC[C@H](OC(=O)c1cccnc1)c1cccc(OCCO)c1 | Sam68 (KHDRBS1) | 0.0
O=C1C[C@]2(c3ccc([N+](=O)[O-])cc3)C(=O)N(CC(F)(F)F)c3cc(CO)ccc3[C@H]2N1CC12CC3CC(CC(C3)C1)C2 | Sam68 (KHDRBS1) | 0.0

Does the reported composite z-score for `COc1cc2c(cc1OC)CN(C(=O)[C@@H]1[C@H]3C(=O)O[C@H](c4ccccc4)[C@H](c4ccccc4)N3[C@H](c3ccccc3OCCO)[C@@]13C(=O)Nc1ccc(C#CCNC(N)=O)cc13)CC2` fall at or above the 0.5 mark?
1.0

Next record, please: CC(C)(C)N1CC=CC23O[C@@H]4C=CCOC(=O)[C@@H]4[C@H]2C(=O)N(CCCCCO)[C@@H]3C1=O (some centres not stated)
0.0

Next record, please: `[N-]=[N+]=NCc1ccccc1C[C@]1(C(=O)O)N=C(c2ccc(OCCCO)cc2)O[C@H]1c1ccccc1`
1.0

Next record, please: `CC(C)NC(=O)[C@@H]1c2ccccc2C(=O)N(Cc2ccccc2Cl)[C@H]1c1ccc(CO)cc1`
1.0
